molecular target: Melanocyte-stimulating hormone receptor (Homo sapiens, UniProt Q01726); assay: Agonist activity at human MC1R transfected in HEK293 cells
Sequence (Q01726 whole entry): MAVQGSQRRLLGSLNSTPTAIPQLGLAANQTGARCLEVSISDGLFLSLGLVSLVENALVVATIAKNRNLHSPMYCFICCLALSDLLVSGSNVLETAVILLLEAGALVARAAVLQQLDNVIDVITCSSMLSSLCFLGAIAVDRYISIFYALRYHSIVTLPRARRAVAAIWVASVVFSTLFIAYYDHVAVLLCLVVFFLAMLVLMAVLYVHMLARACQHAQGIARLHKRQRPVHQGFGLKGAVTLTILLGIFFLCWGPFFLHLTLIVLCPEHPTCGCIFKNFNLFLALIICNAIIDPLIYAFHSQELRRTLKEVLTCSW
Non-standard residues stand in square brackets, D forms with d. Residues, ends and D or L forms follow the SMILES beside them. 2Nal = N[C@@H](Cc1ccc2ccccc2c1)C(=O)O
readout_type: EC50 (nM)

NC(N)=NCCNC(=O)[C@H]1C[C@@H](OCc2ccc3ccccc3c2)CN1C(=O)[C@@H](Cc1ccccc1)NC(=O)C1CCNCC1; 104
CC(=O)N[C@@H](Cc1ccccc1)C(=O)N[C@H](Cc1ccccc1)C(=O)N1C[C@H](OCc2ccc3ccccc3c2)C[C@@H]1CCCN=C(N)N; 201
CC(=O)N[C@@H](CCC(N)=O)C(=O)N[C@H](Cc1ccccc1)C(=O)N1C[C@H](OCc2ccc3ccccc3c2)C[C@@H]1CCCN=C(N)N; 45
NC(N)=NCCC[C@H]1C[C@@H](OCc2ccc3ccccc3c2)CN1C(=O)[C@H](N)Cc1ccccc1; 151
CC(=O)N[C@@H](Cc1c[nH]cn1)C(=O)N[C@@H](Cc1ccccc1)C(=O)N[C@@H](CCCN=C(N)N)C(=O)N[C@@H](Cc1c[nH]c2ccccc12)C(N)=O; 14

[1] CNC(=O)[C@H](Cc1ccc2ccccc2c1)NC(=O)[C@H](CCCN=C(N)N)NC(=O)[C@@H](Cc1ccccc1)NC(=O)[C@H](Cc1ccc(O)cc1)NC(C)=O (Ac-Y[dF]R[2Nal]-NHMe)
[2] NC(=O)C[C@H](N)C(=O)N[C@H](Cc1ccccc1)C(=O)N1C[C@@H](OCc2ccc3ccccc3c2)C[C@H]1CCCN=C(N)N
Qu. Returns: the label, 1 or 2 , whose recorded EC50 is the lower number. Please reply using the label of the selected record.
Ans. 2

[1] N=C(N)NCCC[C@H]1C[C@H](OCc2ccc3ccccc3c2)CN1C(=O)[C@@H](Cc1ccccc1)NC(=O)[C@@H]1CCCCN1
[2] N=C(N)NCCC[C@H]1C[C@H](OCc2ccc3ccccc3c2)CN1C(=O)[C@@H](Cc1ccccc1)NC(=O)[C@@H]1Cc2ccccc2CN1
[3] CNC(=O)[C@H](Cc1ccc2ccccc2c1)NC(=O)[C@H](CCCN=C(N)N)NC(=O)[C@@H](Cc1ccccc1)NC(=O)[C@H](Cc1c[nH]cn1)NC(C)=O
[4] N=C(N)NCCNC(=O)[C@H]1C[C@@H](OCc2ccc3ccccc3c2)CN1C(=O)[C@@H](Cc1ccccc1)NC(=O)[C@@H]1Cc2ccccc2CN1
Qu. // smallest EC50 at index 0, largest at the end Write out the labels following the order that was asked for.
Ans. 3, 1, 2, 4
(3: 14 nM, 1: 28 nM, 2: 72 nM, 4: 539 nM)

[1] NC(N)=NCCC[C@H]1C[C@@H](OCc2ccc3ccccc3c2)CN1C(=O)[C@@H](Cc1ccccc1)NC(=O)[C@@H]1CCCN1
[2] CC(=O)N[C@@H](CCC(N)=O)C(=O)N[C@H](Cc1ccccc1)C(=O)N1C[C@H](OCc2ccc3ccccc3c2)C[C@@H]1C(=O)NCCN=C(N)N
Qu. Returns: the label, 1 or 2 , whose recorded EC50 is the lower number. Please reply using the label of the selected record.
Ans. 1

[a] N=C(N)NCCC[C@@H]1C[C@@H](OCc2ccc3ccccc3c2)CN1C(=O)[C@@H](Cc1ccccc1)NC(=O)[C@@H]1Cc2ccccc2CN1
[b] CC(=O)N[C@H](Cc1ccccc1)C(=O)N1C[C@H](OCc2ccc3ccccc3c2)C[C@@H]1CCCN=C(N)N
[c] NC(=O)C[C@H](N)C(=O)N[C@H](Cc1ccccc1)C(=O)N1C[C@@H](OCc2ccc3ccccc3c2)C[C@@H]1CCCN=C(N)N
Qu. // smallest EC50 at index 0, largest at the end Write out the labels following the order that was asked for.
Ans. c, a, b
(c: 4.3 nM, a: 19 nM, b: 232 nM)
